So basically, if H2 permeability comes in under 20 Barrer it's class 1, and if it's 20 Barrer or more it's class 0.

Answered cases to consult:
compound	classification
*c1ccc(Cc2ccc(N3C(=O)c4ccc(Oc5ccc(Oc6ccc7c(c6)C(=O)N(*)C7=O)cc5)cc4C3=O)cc2)cc1 (repeat unit)	class 1
*C(=C(*)c1ccc(C(C)(C)C)cc1)c1ccc(O[Si](C)(C)C(C)(C)C)cc1 (repeat unit)	class 0
*Oc1ccc(S(=O)(=O)c2ccc(Oc3c(C)cc(C(C)(C)c4cc(C)c(*)c(C)c4)cc3C)cc2)cc1 (repeat unit)	class 1
*C(=C(*)c1cccc(O[Si](C)(C)C(C)(C)C)c1)c1ccc([Si](C)(C)C)cc1 (repeat unit)	class 0
*c1ccc(Oc2ccc(C(C)(C)c3ccc(Oc4ccc(N5C(=O)c6ccc(C(=O)c7ccc8c(c7)C(=O)N(*)C8=O)cc6C5=O)cc4)cc3)cc2)cc1 (repeat unit)	class 1

Qu. Is 20 Barrer strictly greater than the compound's reported H2 permeability? compound: *c1ccc2c3c(ccc2c1)OC1Oc2ccc4cc(N5C(=O)c6ccc(C(c7ccc8c(c7)C(=O)N(*)C8=O)(C(F)(F)F)C(F)(F)F)cc6C5=O)ccc4c2C31 (repeat unit)
Ans. class 0

Qu. # check: H2 permeability < 20 Barrer for *Nc1ccc(C(c2ccc(NC(=O)c3cccc(C(*)=O)c3)cc2)(C(F)(F)F)C(F)(F)F)cc1 (repeat unit)
Ans. class 0

Qu. Please indicate whether the reported H2 permeability of *c1ccc(-c2ccc(N3C(=O)c4ccc(Oc5cc(C(C)(C)C)ccc5Oc5ccc6c(c5)C(=O)N(*)C6=O)cc4C3=O)c(OC)c2)cc1OC (repeat unit) is strictly below 20 Barrer.
Ans. class 0

Qu. Please determine if *Oc1ccc(C2(c3ccc(Oc4ccc(S(=O)(=O)c5ccc(*)cc5)cc4)cc3)OC(=O)c3ccccc32)cc1 (repeat unit) is below 20 Barrer in terms of H2 permeability.
Ans. class 1

Qu. Decide: H2 permeability of *C(=C(*)c1ccc([Si](C(C)C)(C(C)C)C(C)C)cc1)c1ccccc1 (repeat unit) strictly below 20 Barrer?
Ans. class 0

Qu. Does *Oc1cc2c(cc1O*)C1(CC2(C)C)CC(C)(C)c2cc3c(cc21)Oc1c(CN)c(*)c(*)c(CN)c1O3 (repeat unit) have H2 permeability strictly under 20 Barrer?
Ans. class 0

Qu. Find out if reported H2 permeability for *c1ccc2c(c1)-c1nc3ccc(-c4ccc5c(c4)nc4n5C(=O)c5cc(C(c6ccc7c(c6)C(=O)N(*)C7=O)(C(F)(F)F)C(F)(F)F)ccc5-4)cc3n1C2=O (repeat unit) is less than 20 Barrer
Ans. class 0

---

The entries below come with measured O2 permeability values attached.

molecule	outcome_measure	result
*C(=C(*)c1ccc(O[Si](C)(C)C(C)(C)C)cc1)c1ccc(F)cc1 (repeat unit)	O2 permeability	140 Barrer
*O[Si](C)(C)c1cccc([Si](*)(C)C)c1 (repeat unit)	O2 permeability	74 Barrer
*c1cccc(S(=O)(=O)c2cccc(N3C(=O)c4ccc(C(c5ccc6c(c5)C(=O)N(*)C6=O)(C(F)(F)F)C(F)(F)F)cc4C3=O)c2)c1 (repeat unit)	O2 permeability	0.73 Barrer
*[Si](C)(C)c1ccc([Si](*)(C)C)cc1 (repeat unit)	O2 permeability	14.1 Barrer
*Nc1ccc(C(=O)c2ccc(NC(=O)c3cccc(C(*)=O)c3)cc2)cc1 (repeat unit)	O2 permeability	0.069 Barrer

Qu. # input molecule: *OC(=O)Oc1ccc(C2(c3ccc(*)cc3)CC3CCC2C3)cc1 (repeat unit) ; wanted: its O2 permeability
Ans. 2.4 Barrer

Qu. Look up O2 permeability for this molecule: *c1ccc(Cc2ccc(-n3c(=O)c4cc5c(=O)n(*)c(=O)c5cc4c3=O)cc2)cc1 (repeat unit)
Ans. 0.398 Barrer

Qu. I have this molecule here, *C(=C(*)c1ccc(S(=O)(=O)O)cc1)c1ccc(C(C)(C)C)cc1 (repeat unit) , and I need its recorded O2 permeability.
Ans. 45 Barrer

Qu. Need O2 permeability, item *c1ccc(Oc2ccc(N3C(=O)c4cc(Oc5ccc(C(C)(C)C)cc5)c(-c5cc6c(cc5Oc5ccc(C(C)(C)C)cc5)C(=O)N(*)C6=O)cc4C3=O)cc2)cc1 (repeat unit)
Ans. 11.3 Barrer

---

Property: O2 permeability; scope: individual compounds

Example compounds with recorded O2 permeability:
compound	O2 permeability
*c1cc(C)c2c(c1)S(=O)(=O)c1cc(N3C(=O)c4ccc(-c5ccc6c(c5)C(=O)N(*)C6=O)cc4C3=O)cc(C)c1-2 (repeat unit)	3.29 Barrer
*Oc1ccc(S(=O)(=O)c2ccc(Oc3ccc(-c4ccc(*)cc4)cc3)cc2)cc1 (repeat unit)	1.3 Barrer
*Oc1ccc(S(=O)(=O)c2ccc(Oc3ccc(C4(c5ccc(*)cc5)c5ccccc5-c5ccccc54)cc3)cc2)cc1 (repeat unit)	2.76 Barrer
*CC(*)(F)F (repeat unit)	0.0826 Barrer
*CCC(F)(F)C(*)(F)F (repeat unit)	0.532 Barrer

Qu. Look up O2 permeability for this compound: *CCOC(=O)c1ccc2cc(C(=O)O*)ccc2c1 (repeat unit)
Ans. 0.0132 Barrer

Qu. Please report the recorded O2 permeability for *C(=C(*)c1ccc2c(c1)C(C)(C)c1cc([Si](C)(C)C)ccc1-2)c1ccccc1 (repeat unit) .
Ans. 5400 Barrer

Qu. I have this compound here, *Oc1ccc(C(C)(C)c2ccc(OC(=O)c3ccc(C(*)=O)cc3)cc2)cc1 (repeat unit) , and I need its recorded O2 permeability.
Ans. 2.5 Barrer

Qu. Look up O2 permeability: *c1ccc2c(-c3c(O)ccc4cc(N5C(=O)c6ccc(C(=O)c7ccc8c(c7)C(=O)N(*)C8=O)cc6C5=O)ccc34)c(O)ccc2c1 (repeat unit)
Ans. 0.76 Barrer

Qu. If you can, please state the reported O2 permeability value of *Oc1cc(C)c(C2(c3cc(C(C)C)c(Oc4ccc(S(=O)(=O)c5ccc(*)cc5)cc4)cc3C)OC(=O)c3ccccc32)cc1C(C)C (repeat unit) .
Ans. 4.85 Barrer

Qu. What measured O2 permeability goes with *CC(C)C(=O)OC(C)C(*)=O (repeat unit) ?
Ans. 0.26 Barrer

Qu. Record request: O2 permeability value, item *Oc1c(C)cc(*)c(C(=O)c2ccc([N+](=O)[O-])cc2)c1C (repeat unit)
Ans. 5.04 Barrer

Qu. Sample *c1ccc(-c2ccc(N3C(=O)c4ccc([Si](C)(C)c5ccc6c(c5)C(=O)N(*)C6=O)cc4C3=O)cc2)cc1 (repeat unit) — what was its O2 permeability?
Ans. 0.677 Barrer

---

Each record gets a class by CO2 permeability: class 0 = under 20 Barrer, class 1 = from 20 Barrer up to 300 Barrer, class 2 = 300 Barrer and over

molecule	classification
*C(C)=C(*)[Si](C)(C)C (repeat unit)	class 2
*C(=C(*)c1ccc2c(c1)C(C)(C)CC2(C)C)c1ccc(Cl)cc1 (repeat unit)	class 2
*Oc1ccc(-c2ccc(C3CCC(Oc4ccc(C5(c6ccc(*)cc6)c6ccccc6-c6ccccc65)cc4)C(C(F)(F)F)C3)s2)cc1C(F)(F)F (repeat unit)	class 1
*Oc1c(C)cc(-c2cc(C)c(Oc3ccc(S(=O)(=O)c4ccc(*)cc4)cc3)c(C)c2C)c(C)c1C (repeat unit)	class 1

Qu. // bin(item) where item = *c1ccc(C2(c3ccc(*)cc3)c3ccccc3-c3ccccc32)cc1 (repeat unit)
Ans. class 1

Qu. Which category fits this record: *Oc1ccc(C(C)(C)c2ccc(Oc3ccc4c(c3)C(=O)N(c3ccc(N5C(=O)c6ccc(*)cc6C5=O)cc3)C4=O)cc2)cc1 (repeat unit)
Ans. class 0

---

In this section we review reported CO2 permeability values for a set of compounds.
Report the value in Barrer with no unit label.

compound	CO2 permeability / Barrer
*Nc1c(C)cc(C(C)(C)c2cc(C)c(NC(=O)c3ccc(Oc4cc(C(C)(C)C)c(Oc5ccc(C(*)=O)cc5)cc4C(C)(C)C)cc3)c(C)c2)cc1C (repeat unit)	43
*c1ccc(Cc2ccc(N3C(=O)c4ccc(-c5ccc6c(c5)C(=O)N(*)C6=O)cc4C3=O)cc2)cc1 (repeat unit)	1.58
*OC(=O)Oc1c(C)cc(C(C)(C)c2cc(C)c(*)c(C)c2)cc1C (repeat unit)	19.6
*Oc1cc(C)c(C2(c3cc(C(C)C)c(Oc4ccc(S(=O)(=O)c5ccc(*)cc5)cc4)cc3C)OC(=O)c3ccccc32)cc1C(C)C (repeat unit)	19.4
*c1c(C)cc2c(c1C)C1c3ccccc3C2c2cc(C)c(-n3c(=O)c4cc5c(=O)n(*)c(=O)c5cc4c3=O)c(C)c21 (repeat unit)	3360
*CC(*)OC1CC2CC1C1CCCC21 (repeat unit)	12.6

Qu. For *Oc1ccc(C(C)(C)c2ccc(OC(=O)c3cc(C(*)=O)cc(C(C)(C)C)c3)cc2)cc1 (repeat unit) , what is its reported CO2 permeability?
Ans. 24.2

---

# H2 permeability per entry
Write the answer as a number in Barrer, unit excluded.

compound	outcome_measure	number
*Oc1ccc(C(C)(C)c2ccc(OC(=O)c3cc(C(*)=O)cc(C(C)(C)C)c3)cc2)cc1 (repeat unit)	H2 permeability	41.9
*c1cc2c(cc1*)C1(C(C)C)c3ccccc3C2(C(C)C)c2cc3c(cc21)Oc1cc2nc(*)c(*)nc2cc1O3 (repeat unit)	H2 permeability	1100
*/C(C)=C(/*)[Si](C)(C)CCC (repeat unit)	H2 permeability	250
*c1ccc(C(c2ccc(-n3c(=O)c4cc5c(=O)n(*)c(=O)c5cc4c3=O)cc2)(C(F)(F)F)C(F)(F)F)cc1 (repeat unit)	H2 permeability	59.1
*C(=C(*)c1ccc2c(c1)C(C)(C)CC2(C)C)c1ccc(C)cc1 (repeat unit)	H2 permeability	10800
*Oc1cc2c(cc1O*)C1(CC2(C)C)CC(C)(C)c2cc3c(cc21)Oc1cc2nc4cc5c(cc4nc2cc1O3)C(C)(C)CC51CC(C)(C)c2cc3nc4cc(*)c(*)cc4nc3cc21 (repeat unit)	H2 permeability	860

Qu. So what does the record say about H2 permeability for *C(=C(*)c1cccc([Si](C)(C)C)c1)c1ccccc1 (repeat unit) ?
Ans. 2100

Qu. Entry under review: *c1c(C)cc(C)c(-n2c(=O)c3cc4c(=O)n(*)c(=O)c4cc3c2=O)c1C (repeat unit) . Reported H2 permeability?
Ans. 235

Qu. Request the reported H2 permeability associated with *CCCCO* (repeat unit)
Ans. 36

Qu. Data request, read-out H2 permeability, for *C(C)=C(*)CC(C)C (repeat unit)
Ans. 750
